target: human recombinant DGK ξ (Homo sapiens (Human))
Sequence (Q13574 whole entry): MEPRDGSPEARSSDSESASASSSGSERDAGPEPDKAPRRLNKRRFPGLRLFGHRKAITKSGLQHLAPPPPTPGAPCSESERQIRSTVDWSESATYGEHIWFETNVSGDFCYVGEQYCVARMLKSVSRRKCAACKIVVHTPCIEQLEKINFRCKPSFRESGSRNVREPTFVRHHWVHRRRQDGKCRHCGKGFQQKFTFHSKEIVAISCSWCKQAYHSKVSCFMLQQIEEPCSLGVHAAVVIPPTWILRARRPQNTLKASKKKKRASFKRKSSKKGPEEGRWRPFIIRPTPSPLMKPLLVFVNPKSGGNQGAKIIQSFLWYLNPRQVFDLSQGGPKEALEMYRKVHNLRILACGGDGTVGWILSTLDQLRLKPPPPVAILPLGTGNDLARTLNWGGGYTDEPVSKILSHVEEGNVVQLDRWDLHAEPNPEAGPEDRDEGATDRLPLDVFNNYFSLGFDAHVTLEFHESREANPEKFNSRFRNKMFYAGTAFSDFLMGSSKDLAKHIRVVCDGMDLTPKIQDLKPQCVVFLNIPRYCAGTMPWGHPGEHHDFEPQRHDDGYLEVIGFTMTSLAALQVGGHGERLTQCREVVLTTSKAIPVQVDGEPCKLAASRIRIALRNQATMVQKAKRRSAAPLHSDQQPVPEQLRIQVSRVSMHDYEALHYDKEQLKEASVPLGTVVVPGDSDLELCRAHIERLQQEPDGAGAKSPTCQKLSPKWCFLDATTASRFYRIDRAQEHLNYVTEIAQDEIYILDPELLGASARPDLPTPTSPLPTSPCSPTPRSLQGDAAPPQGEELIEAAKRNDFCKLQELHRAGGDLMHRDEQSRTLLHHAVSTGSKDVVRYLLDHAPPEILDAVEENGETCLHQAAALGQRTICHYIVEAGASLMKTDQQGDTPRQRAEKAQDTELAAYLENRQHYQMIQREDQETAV
test-description: Evaluation of DGK ξ inhibitory effect (ADP-Glo Kinase Assay)
experimental-conditions: ADP-Glo luminescence
quantity: IC50 (nM)

Known results for compounds:
compound: NC[C@@H]1CCCN(c2c(NC(=O)c3coc(-c4ccnnc4)n3)ccc(-c3ccccc3F)c2C(F)(F)F)C1 [Example 42]
IC50 [nM]: 150

compound: CN(C)[C@@H]1CCN2CCN(c3c(NC(=O)c4coc(-c5ccnnc5)n4)ccc(Oc4ccccc4)c3C(F)(F)F)C[C@@H]12 [Example 115]
IC50 [nM]: 7.9

compound: CNC[C@H]1CN(c2c(NC(=O)c3cnn(-c4ccnnc4)n3)ccc(Oc3ccccc3Cl)c2C(F)(F)F)CCN1C [Example 97]
IC50 [nM]: 12

compound: CNCCOc1cc(-c2c(NC(=O)c3coc(-c4ccnnc4)n3)ccc(OC3CCC3)c2C(F)(F)F)ccn1 [Example 69]
IC50 [nM]: 60

compound: CNC[C@H]1CN(c2c(NC(=O)c3ccn(CC(F)F)n3)ccc(Oc3ccccc3F)c2C(F)(F)F)CCN1C [Example 23]
IC50 [nM]: 63

compound: N[C@H]1CCN2CCN(c3c(NC(=O)c4ccn(-c5ccnnc5)n4)ccc(Oc4ccccc4F)c3C(F)(F)F)C[C@H]12 [Example 84]
IC50 [nM]: 2.1

[I] NCCOc1cccc(-c2c(NC(=O)c3coc(-c4ccnnc4)n3)ccc(OC3CC3)c2C(F)(F)F)c1 [Example 65]
[II] NC[C@@H]1CCCN(c2c(NC(=O)c3ccn(-c4ccnnc4)n3)ccc(Oc3ccccn3)c2C(F)(F)F)C1 [Example 61]
[III] NC[C@@H]1CCCN(c2c(NC(=O)c3ccn(CC(F)F)n3)ccc(Oc3ccccc3Cl)c2C(F)(F)F)C1 [Example 9]
[IV] CNC[C@H]1CN(c2c(NC(=O)c3ccn(-c4ccnnc4)n3)ccc(Oc3ccc(F)cc3)c2C(F)(F)F)CCN1C [Example 101]
[V] CN1CCN(c2c(NC(=O)c3ccn(-c4ccnnc4)n3)ccc(Oc3ccccc3F)c2C(F)(F)F)C[C@@H]1CN [Example 38]
Rank ascending by IC50. // respond by listing labels in the order requested V, III, I, II, IV
